measurement-description: DNDI: Cytotoxicity against human MRC-5 lung fibroblast cells.
settings: IC50
pIC50: −log10 of the molar value.
observation-type: pIC50

Recorded pIC50, per entry:
- Cc1cc(C)c(C(=O)CC(N2CCCCC2)C(F)(F)F)c(=O)[nH]1 (stereo not drawn): < 4.68
- CC(C)Cc1ccc(C(C)C(=N)NC2CCCCC2)cc1 (stereo not drawn): < 4.68
- CC(C)(C)C(=O)NCCc1csc(-c2cccc(F)c2)n1: < 4.38
- Cc1ccccc1C(O)(Cc1ccccc1)C1CN2CCC1CC2 (stereo not drawn): < 5.38
- Oc1c(C(Nc2nccs2)c2ccc(F)cc2)ccc2cccnc12 (stereo not drawn): < 4.68

pIC50 measured on COc1cc2nc(NC3CCCc4ccccc43)nc(N)c2cc1OC (stereo not drawn) = < 5.38
